System: tet operator sequence
Assay: β-galactosidase activity of a tetracycline-regulated promoter in transformed E. coli with revTetR, in the presence and absence of anhydrotetracycline (atc)
Assay type: cell-based, Escherichia coli
Details: RevTetR isolate cultured in the absence of anhydrotetracycline (ATC)
Please use 1 (yes) whenever β-Galactosidase Activity, Cultured Without ATC is not below 100, and 0 (no) whenever it is.

Worked cases, answers included:
[
  {
    "Molecule": "TetRrev6-35: revTetR(BD) D95Y V99E (protein, Modified tetracycline repressor, revTetR(BD) D95Y V99E) MSRLDKSKVINSALELLNEVGIEGLTTRKLAQKLGVEQPTLYWHVKNKRALLDALAVEILARHHDYSLPAAGESWQSFLRNNAMSFRRALLRYRYGAKEHLGTRPDEKQYDTVETQLRFMTENGFSLRDGLYAISAVSHFTLGAVLEQQEHTAALTDRPAAPDENLPPLLREALQIMDSDDGEQAFLHGLESLIRGFEVQLTALLQIV",
    "Class label": "0 (no)"
  },
  {
    "Molecule": "TetRrevAF2/7: revTetR(BD) Y93C D95E A97T (protein, Modified tetracycline repressor, revTetR(BD) Y93C D95E A97T) MSRLDKSKVINSALELLNEVGIEGLTTRKLAQKLGVEQPTLYWHVKNKRALLDALAVEILARHHDYSLPAAGESWQSFLRNNAMSFRRALLRCREGTKVHLGTRPDEKQYDTVETQLRFMTENGFSLRDGLYAISAVSHFTLGAVLEQQEHTAALTDRPAAPDENLPPLLREALQIMDSDDGEQAFLHGLESLIRGFEVQLTALLQIV",
    "Class label": "0 (no)"
  },
  {
    "Molecule": "TetRrev6-50: revTetR(BD) V99G (protein, Modified tetracycline repressor, revTetR(BD) V99G) MSRLDKSKVINSALELLNEVGIEGLTTRKLAQKLGVEQPTLYWHVKNKRALLDALAVEILARHHDYSLPAAGESWQSFLRNNAMSFRRALLRYRDGAKGHLGTRPDEKQYDTVETQLRFMTENGFSLRDGLYAISAVSHFTLGAVLEQQEHTAALTDRPAAPDENLPPLLREALQIMDSDDGEQAFLHGLESLIRGFEVQLTALLQIV",
    "Class label": "0 (no)"
  }
]

Ask: # bool: β-Galactosidase Activity, Cultured Without ATC of TetRrev4/6-4: revTetR(BD) D95A V99G V57V A61G (protein, Modified tetracycline repressor, revTetR(BD) D95A V99G V57V A61G) MSRLDKSKVINSALELLNEVGIEGLTTRKLAQKLGVEQPTLYWHVKNKRALLDALAVEILGRHHDYSLPAAGESWQSFLRNNAMSFRRALLRYRAGAKGHLGTRPDEKQYDTVETQLRFMTENGFSLRDGLYAISAVSHFTLGAVLEQQEHTAALTDRPAAPDENLPPLLREALQIMDSDDGEQAFLHGLESLIRGFEVQLTALLQIV >= 100
Reply: 0 (no)

Ask: Assess whether reported β-Galactosidase Activity, Cultured Without ATC for TetRrevAtc4-6: revTetR(BD) D53Y L55L A56P R62L (protein, Modified tetracycline repressor, revTetR(BD) D53Y L55L A56P R62L) MSRLDKSKVINSALELLNEVGIEGLTTRKLAQKLGVEQPTLYWHVKNKRALLYALPVEILALHHDYSLPAAGESWQSFLRNNAMSFRRALLRYRDGAKVHLGTRPDEKQYDTVETQLRFMTENGFSLRDGLYAISAVSHFTLGAVLEQQEHTAALTDRPAAPDENLPPLLREALQIMDSDDGEQAFLHGLESLIRGFEVQLTALLQIV sits at 100 or higher.
Reply: 1 (yes)

Ask: Hi, just wondering whether TetRrevAF1/4: revTetR(BD) N18K D95V G96V A97V (protein, Modified tetracycline repressor, revTetR(BD) N18K D95V G96V A97V) MSRLDKSKVINSALELLKEVGIEGLTTRKLAQKLGVEQPTLYWHVKNKRALLDALAVEILARHHDYSLPAAGESWQSFLRNNAMSFRRALLRYRVVVKVHLGTRPDEKQYDTVETQLRFMTENGFSLRDGLYAISAVSHFTLGAVLEQQEHTAALTDRPAAPDENLPPLLREALQIMDSDDGEQAFLHGLESLIRGFEVQLTALLQIV shows β-Galactosidase Activity, Cultured Without ATC of 100 or higher.
Reply: 0 (no)
